This collection of values is drawn from PubChem BioAssay AID1441.

# assayed-system: Regulator of G-protein signaling 16 (Homo sapiens) + Guanine nucleotide-binding protein G(o) subunit alpha (Homo sapiens) (UniProt O15492+P09471)
# Sequence (O15492 whole entry, looked up): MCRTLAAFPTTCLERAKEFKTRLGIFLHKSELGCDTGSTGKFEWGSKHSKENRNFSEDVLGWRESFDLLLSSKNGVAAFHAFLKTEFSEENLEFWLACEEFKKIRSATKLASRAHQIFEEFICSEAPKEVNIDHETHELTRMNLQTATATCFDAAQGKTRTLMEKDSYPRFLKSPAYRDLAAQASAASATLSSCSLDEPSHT
# Sequence (P09471 whole entry, looked up): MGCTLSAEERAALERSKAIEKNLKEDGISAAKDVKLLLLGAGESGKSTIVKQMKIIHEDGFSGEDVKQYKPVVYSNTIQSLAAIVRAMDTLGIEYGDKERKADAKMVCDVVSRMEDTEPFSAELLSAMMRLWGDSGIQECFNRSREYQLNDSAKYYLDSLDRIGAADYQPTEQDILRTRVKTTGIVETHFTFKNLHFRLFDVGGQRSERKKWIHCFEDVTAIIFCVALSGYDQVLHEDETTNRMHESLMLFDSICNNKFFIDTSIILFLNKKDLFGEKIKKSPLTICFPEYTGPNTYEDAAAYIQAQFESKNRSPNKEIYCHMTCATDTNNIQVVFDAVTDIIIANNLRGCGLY
# run-description: modulators of RGS16 binding to Galphao, primary screen, biochemical, human proteins, multiplexed bead flow cytometry (AID 1441);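 also: Galphao activated by GDP with aluminum fluoride before binding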
# measurement-conditions: bead-based flow cytometry RGS16-Galphao binding, fluorescence; at 10 µM; actives lie on both sides
Among all 220,000 compounds or so, about 830 (0.38%) were called active. Shown is part of a subset that was picked to be rich in actives.
Can you tell me binding response (% of control) for the items I'm about to list?
Give bare numbers, in %.

Worked examples follow.
| compound | binding response (% of control), % |
| --- | --- |
| COc1ccccc1C1CCN(C(=S)Nc2ccc(Br)cc2)CC1 | 98 |
| COc1ccc(NS(=O)(=O)c2ccc(NC(=S)NC(=O)CC(C)C)cc2)cc1 | 98.4 |
| CCOC(=O)C1C(c2ccc(Cl)cc2)NC(=S)NC1(O)C(F)(F)F (configuration not stated) | 102 |
| O=C(O)C#Cc1cccc2ccccc12 | 103 |
| CCOC(=O)CSc1nc(C)c(Oc2ccc(Cl)cc2Cl)c(=O)[nH]1 | 101 |
| C=CCn1c(Cn2nnc3ccccc32)nnc1SCC(=O)N/N=C/c1cc(Br)cc(OC)c1O | -35.2 |

Please state, for each entry, its recorded binding response (% of control).
1. COc1ccc(-c2nn(-c3ccccc3)cc2/C=N/Nc2ccccn2)cc1OC
2. O=C(Cn1cnc2cc([N+](=O)[O-])ccc2c1=O)NC(=O)NCc1ccccc1
3. CCS(=O)(=O)c1cc([N+](=O)[O-])c(Sc2ccccc2N)s1
4. CCN(CC)c1ccc(/C=N/NC(=O)c2cnccn2)c(O)c1
5. NC(=S)Nc1c(Cl)cccc1Cl
6. COc1ccc(Cl)cc1C(=O)NNC(=O)c1nc2nc(C)cc(C)n2n1

**A:**
1. 112
2. 112
3. 91.4
4. 94.6
5. 98.9
6. 95.3
